assay: clinical; settings: human, in vivo, po, 90 mg/m2, Paclitaxel Cmax, Mean (SD), 90 mg/m^2, Day 2, N 2, two consecutive daily oral doses
measured.property: Cmax (ng/mL)
Answers are plain numbers, in ng/mL.

Please give measured Cmax of the following entry: CC(=O)O[C@H]1C(=O)[C@@]2(C)[C@H]([C@H](OC(=O)c3ccccc3)[C@]3(O)C[C@H](OC(=O)[C@H](O)[C@@H](NC(=O)c4ccccc4)c4ccccc4)C(C)=C1C3(C)C)[C@]1(OC(C)=O)CO[C@@H]1C[C@@H]2O 315

====

assay: clinical; settings: human, in vivo, po, 90 mg/m2, Paclitaxel Cmax, Mean (SD), 90 mg/m^2, Day 1, N 2, two consecutive daily oral doses
measured.property: Cmax (ng/mL)
Give bare numbers, in ng/mL.

Assign Cmax to the following record: CC(=O)O[C@H]1C(=O)[C@@]2(C)[C@H]([C@H](OC(=O)c3ccccc3)[C@]3(O)C[C@H](OC(=O)[C@H](O)[C@@H](NC(=O)c4ccccc4)c4ccccc4)C(C)=C1C3(C)C)[C@]1(OC(C)=O)CO[C@@H]1C[C@@H]2O [Paclitaxel] 202

====

test: Paclitaxel pharmacokinetics in dogs after single oral dose with Compound A; settings: dog, in vivo, 6 mg/kg
measured.property: Tmax (min)
Numbers only, in min.

Consider the compound CC(=O)O[C@H]1C(=O)[C@@]2(C)[C@H]([C@H](OC(=O)c3ccccc3)[C@]3(O)C[C@H](OC(=O)[C@H](O)[C@@H](NC(=O)c4ccccc4)c4ccccc4)C(C)=C1C3(C)C)[C@]1(OC(C)=O)CO[C@@H]1C[C@@H]2O and give its recorded Tmax. 30

====

assay: Paclitaxel pharmacokinetics in rats after single oral dose with Compound A; conditions: rat, in vivo, 20 mg/kg
measured.property: Cmax (ng/mL)
Numbers only, in ng/mL.

Given the compound CC(=O)O[C@H]1C(=O)[C@@]2(C)[C@H]([C@H](OC(=O)c3ccccc3)[C@]3(O)C[C@H](OC(=O)[C@H](O)[C@@H](NC(=O)c4ccccc4)c4ccccc4)C(C)=C1C3(C)C)[C@]1(OC(C)=O)CO[C@@H]1C[C@@H]2O , write its reported Cmax. 852

====

test: clinical; settings: human, in vivo, oral
measured.property: half-life

In one line, give reported half-life of the entry CC(=O)O[C@H]1C(=O)[C@@]2(C)[C@H]([C@H](OC(=O)c3ccccc3)[C@]3(O)C[C@H](OC(=O)[C@H](O)[C@@H](NC(=O)c4ccccc4)c4ccccc4)C(C)=C1C3(C)C)[C@]1(OC(C)=O)CO[C@@H]1C[C@@H]2O . 18.3 to 19.7 h

====

assay: clinical; conditions: human, in vivo, po, 180 mg/m2
measured.property: AUC(0-inf) (ng·h/mL)
One number for each entry, in ng·h/mL.

State, in one line, measured AUC(0-inf) of CC(=O)O[C@H]1C(=O)[C@@]2(C)[C@H]([C@H](OC(=O)c3ccccc3)[C@]3(O)C[C@H](OC(=O)[C@H](O)[C@@H](NC(=O)c4ccccc4)c4ccccc4)C(C)=C1C3(C)C)[C@]1(OC(C)=O)CO[C@@H]1C[C@@H]2O [Paclitaxel] 1980

====

assay: clinical; settings: human, in vivo, po, 360 mg/m2
measured.property: Vd/F (L)
Answers are plain numbers, in L.

Please list Vd/F recorded for the compound CC(=O)O[C@H]1C(=O)[C@@]2(C)[C@H]([C@H](OC(=O)c3ccccc3)[C@]3(O)C[C@H](OC(=O)[C@H](O)[C@@H](NC(=O)c4ccccc4)c4ccccc4)C(C)=C1C3(C)C)[C@]1(OC(C)=O)CO[C@@H]1C[C@@H]2O 6840
